B1: LINE1-full (parent)
chain: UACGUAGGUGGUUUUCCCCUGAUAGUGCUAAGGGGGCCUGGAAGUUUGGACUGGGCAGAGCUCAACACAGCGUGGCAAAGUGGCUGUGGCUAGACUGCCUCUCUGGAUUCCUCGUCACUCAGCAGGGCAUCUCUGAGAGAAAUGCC

# Variants of: B1
# MEASUREMENT DESCRIPTION: self-cleavage, relative activity (ratio to wild type); higher = more cleavage; in vitro, sequencing; the parent is a self-cleaving ribozyme
Classify as follows. Reported self-cleavage greater than or equal to 1: rule met. Reported self-cleavage below: rule not met.

Has UACGUAGGUGGUUCUCCCCUGAUAGUGCUAAGGGGGCCUGGAAGUUGGGACUGGGCAGAGCUCAACACAGCGUGGCAAAGUGGCUGUGGCUAGACUGCCUCUCUGGAUUCCUCGUCACUCAGCAGGGCAUCUCUGAGAGAAAUGCC [U14C U47G] a recorded self-cleavage greater than or equal to 1?
rule met

# bool: self-cleavage of UACGUAGGUGGUUUUCCCCUGAUAGUGCUAAGGGGGCCUGGAAGUUUGGACUGGGCAGAGCUCAACGCAGCGUGGCAAAGUGGCUGUGGCUAGGCUGCCUCUCUGGAUUCCUCGUCACUCAGCAGGGCAUCUCUGAGAGAAAUGCC [A67G A94G] >= 1
rule not met

Is it the case that UACGUAGGUGGUUUUCCCCUGAUAGAGCUAAGGGGGCCUGGAAGUUUGGACUGGGCAGAGCUCAACACAGCGUGGCAAAGUGGCUGUGGCUAGACUGCCUCUCUGGAUUCCUCGUCACUCGGCAGGGCAUCUCUGAGAGAAAUGCC [U26A A121G] has self-cleavage reaching or exceeding 1?
rule met

Does the reported self-cleavage for UACGUAGGUGGUUUUCCCCUGAUAGUGCUAAGGGGGCCUGGAAGUUUGGACUGUGCAGAGCUCAACACAGCGUGGCAGAGUGGCUGUGGCUAGACUGCCUCUCUGGAUUCCUCGUCACUCAGCAGGGCAUCUCUGAGAGAAAUGCC [G54U A78G] fall at or above the 1 mark?
rule not met

Does self-cleavage meet or surpass 1 for UACGUAGGUGGCUUUCCCCUGAUAGUGCUAAGGGGGCCUGGAAGUUUGGACUGGGCAGAGCUCAACACAGCUUGGCAAAGUGGCUGUGGCUAGACUGCCUCUCUGGAUUCCUCGUCACUCAGCAGGGCAUCUCUGAGAGAAAUGCC [U12C G72U] ?
rule met

Has UACGUAGGUGGUUUUCCCCUGAUAGUGCUAAGGGGGCCUGGAAGUUUGGACUGGGCAGAGCUCAACACAGCGUGGCAAAGUGGCCGUGGCUAGACUGCCUCUCUGGAUUCCUCGUCACUCUGCAGGGCAUCUCUGAGAGAAAUGCC [U85C A121U] a recorded self-cleavage greater than or equal to 1?
rule not met

Is reported self-cleavage greater than or equal to 1 here: UACGUAGGUGGUUUUCCCCUGAUAGUGCUAAGGGGGCCUGGAAGUUUGAACUGGGCAGAGCUCAACACAGCGUGGCAAAGUGGCUGUGGCUAGACUGCCUCUCUGGAUUCCUCGUCACUCAGCAGGGCGUCUCUGAGAGAAAUGCC [G49A A129G]
rule met

Decide: is the reported value of self-cleavage for UACGUAGGCGGUUUUCCCCUGAUAGUGCUAAGGAGGCCUGGAAGUUUGGACUGGGCAGAGCUCAACACAGCGUGGCAAAGUGGCUGUGGCUAGACUGCCUCUCUGGAUUCCUCGUCACUCAGCAGGGCAUCUCUGAGAGAAAUGCC [U9C G34A] equal to or greater than 1?
rule met

Given the entry UACGUAGGUGGUUUUCCCCUGAUAGUGCUAAGGGGGCCUGGAAGUUUGGACUGGGCAGAGCUCAACACAGCGUGGCAAAGUGGCUGUGGCUAGACAGCCUCUCUGGAUUCCUCGUCACUCAGCGGGGCAUCUCUGAGAGAAAUGCC [U96A A124G] , answer whether its self-cleavage meets or surpasses 1.
rule not met

Item UACGUAGGUGGUUUUCCCCUGAUAGUGCUAAGGGGGCCUGGAAGUUUGGACUGGGCAGAGCUCAACGCAGCGUGGCAAAGUGGCUGUGGCUAGACUGCCUCUCUGGGUUCCUCGUCACUCAGCAGGGCAUCUCUGAGAGAAAUGCC [A67G A107G] with self-cleavage of 1 or above?
rule not met

Decide: self-cleavage of UACGUAGGUGGUUUUCCCCUGAUAGUGCUAAGGGGGCCUGGAAGUUUGGACUGGGCAGAGCUCUACACAGCGUGGCAAAGUAGCUGUGGCUAGACUGCCUCUCUGGAUUCCUCGUCACUCAGCAGGGCAUCUCUGAGAGAAAUGCC [A64U G82A] >= 1?
rule not met

Identify whether the reported self-cleavage of the following variant is 1 or greater: UACGUAGGUGGUUUUCCCCUGAUAGUGCUAAGGGGGCCUGGAAGUAUGGACUGGGCAGAGCUCAACGCAGCGUGGCAAAGUGGCUGUGGCUAGACUGCCUCUCUGGAUUCCUCGUCACUCAGCAGGGCAUCUCUGAGAGAAAUGCC [U46A A67G]
rule not met

Dear colleague, could you confirm whether UUCGUAGGUGGUUUUCCCCUGAUAGUGCUAAGGGGGCCUGGAAGUUAGGACUGGGCAGAGCUCAACACAGCGUGGCAAAGUGGCUGUGGCUAGACUGCCUCUCUGGAUUCCUCGUCACUCAGCAGGGCAUCUCUGAGAGAAAUGCC [A2U U47A] has self-cleavage at or above 1?
rule not met

Is it the case that UACGUAGGUGGUUUUCCCCUGAUAGUGCUAAGGGGGCCUGGAAGUUUGGACUGGGCAGAGCACAACUCAGCGUGGCAAAGUGGCUGUGGCUAGACUGCCUCUCUGGAUUCCUCGUCACUCAGCAGGGCAUCUCUGAGAGAAAUGCC [U62A A67U] has self-cleavage reaching or exceeding 1?
rule not met

Does self-cleavage meet or surpass 1 for UACGUAGGUGGUUUUCCCCUGAUAGAGCUAAGGGGGCCUGGAAGUUUGGACUGGGCAGAGCUCAACACAGCGUGGCAAAGUGGCUGUGGCUAGACUGCCUCUCUGGAUUCCUCGUCACUCAGCAGGGCAUCUCUGAGGGAAAUGCC [U26A A138G] ?
rule met

# bool: self-cleavage of UACGUAGGUGGUUUUCCCCUGAUAGUGCUAAGGGGGCCUGGAAGUUUGGACUGGGCAGAGCUCAACACGGCGUGGCAAAGUGGCUGUCGCUAGACUGCCUCUCUGGAUUCCUCGUCACUCAGCAGGGCAUCUCUGAGAGAAAUGCC [A69G G88C] >= 1
rule not met

Hi, just wondering whether UACGUAGGUGGUUUUCCCCUGAUAGUGCUAAGGGGGCCUGGAAGUUUGGACUGGGCAGAGCUCAACACAGCGUGGCAAAGUGGCUUUGGCUAGACUGCCUCUCUAGAUUCCUCGUCACUCAGCAGGGCAUCUCUGAGAGAAAUGCC [G86U G105A] shows self-cleavage of 1 or higher.
rule not met

Textbook exercise: given the entry UACGUAGGUGGUUUUCCCCUGAUAGUGCUAAGGGGGCCUGGAAGUUUGGACUGGGCAGAGCUCAACACAGCGUGGCAAUGUGGCUGUGGCAAGACUGCCUCUCUGGAUUCCUCGUCACUCAGCAGGGCAUCUCUGAGAGAAAUGCC [A79U U91A] , state whether its self-cleavage is greater than or equal to 1.
rule not met

Answer whether self-cleavage of UACGUAGGUGGUUUUCCCCUAAUAGUGCUAAGGGGGCCUGGAAGUUUGGACUGGGCAGAGCUCAACACAGCGUGGCAAAGUGGCUGUGGCUAGACUGCCUCUCUGGAUUCCUCGUCACUCAGCAGGGCAUCUCUGAGAGAAAUGUC [G21A C145U] is greater than or equal to 1.
rule not met

Check the entry UACGUAGGUGGUUCUCCCCUGAUAGUGCUAAGGGGGCCUGGAAGUUUGGACUGGGCAGAGCUCAACACAGCGUGGCAAAGUGGCUGUGGCUAGACUGCCGCUCUGGAUUCCUCGUCACUCAGCAGGGCAUCUCUGAGAGAAAUGCC [U14C U100G] : does self-cleavage equal or exceed 1?
rule met

Answer whether self-cleavage of UACGUAGGUGGUUUUCCCCUGAUAGUGCUAAGGGGACCUGGAAGUUUGGACUGGGCAGAGCUCAACACAGCGUGGCAAAGUGGCUGUGUCUAGACUGCCUCUCUGGAUUCCUCGUCACUCAGCAGGGCAUCUCUGAGAGAAAUGCC [G36A G89U] is greater than or equal to 1.
rule not met

Record UACGUAGGUGGUUUUCCCCUGAUAGUGCUAAGGGGGCCUGGAAGUUUGGACUGGGCAGAGCUCAACGCAGCGUGGCAAAGUGGCUGUGGCUAUACUGCCUCUCUGGAUUCCUCGUCACUCAGCAGGGCAUCUCUGAGAGAAAUGCC [A67G G93U] ; criterion: self-cleavage no lower than 1. Met?
rule not met

Quick check: does UACGUAGGUGGAUUUCCCCUGAUAGUGCUAAGGGGGCCUGGAAGUUUGGACUGGGCAGAGCUCAACACAGCGUGGCAAAGAGGCUGUGGCUAGACUGCCUCUCUGGAUUCCUCGUCACUCAGCAGGGCAUCUCUGAGAGAAAUGCC [U12A U81A] have self-cleavage greater than or equal to 1?
rule met

# bool: self-cleavage of UACGAAGGUGGUUUUCCCCUGAUAGUGCUAAGGGGGCCUGGAAGUAUGGACUGGGCAGAGCUCAACACAGCGUGGCAAAGUGGCUGUGGCUAGACUGCCUCUCUGGAUUCCUCGUCACUCAGCAGGGCAUCUCUGAGAGAAAUGCC [U5A U46A] >= 1
rule not met

// inclusive: self-cleavage at least 1? input: UACGUAGGUGGUUUUCCCCUGAUAGUGCUAAGGGGGCCUGGAAGUUUGGACUGGGCAGAGCUCAACACAGCGUGGCAAAGUGGCGGUGGCUAGACUGCCUCUCUGGAUUCCUCGUCACUCAGCAGGGCAUCUCUGAGAGAAAUACC [U85G G144A]
rule not met

Could you please find out whether UACGUAGGUGGUUUUCCCCUGAUAGUGCUAAGGGGGCCUUGAAGUUUGGACUGGGCAGAGCUCAACACAGCGUGGCAAAGUGGCUGUGGCUAGACUGCCUCUCUGGAUUCCUCGUCACUCAGCAGGGCAUCCCUGAGAGAAAUGCC [G40U U132C] has self-cleavage that meets 1 or exceeds it?
rule met

Is reported self-cleavage greater than or equal to 1 here: UACGUAGGUGGUUUUCCCCUGAUAGUGCUAAGGGGGCCUGGAAGUUUGGACUGGGCAGAGCUCAACACAGCGUGGCAAAGUGGCUGUGGCUAGACUGCCUCUCUGGUUUCCUCGUCACUCAGCAGGGCGUCUCUGAGAGAAAUGCC [A107U A129G]
rule met

Could you please find out whether UACGUAGGUGGUUUUCCCCUGAUAGUGCUAAGGGGGCCUGGAAGUUUGGACUGGGCAGAGCUCAACACAGCGUGGCAAAGUGGCUGUGGCUAGACUGCCUCUCUGGAUUCCUCGUCACUAAGCAGGGCAUCUCUGAGAGAAGUGCC [C120A A142G] has self-cleavage that meets 1 or exceeds it?
rule not met

Evaluate UCCGUAGGUGGUUUUCCCCUGAUAGUGCUAAGGGGGCCUGGAAGUUUGGACUGGGCAGAGCUCAACACAGCGUGGCAAAGUGGCUGUGGCUAGACUGCCUCUCUGGAUUCCUCGUCACUCAGCAGGGCAUCUCUGAGGGAAAUGCC [A2C A138G] : self-cleavage at minimum 1?
rule met

Test whether the variant UACGUAGGUGGUUUUCCCCUGAUAGUGCUAAGGGGGCCUGGAAGUUUGGACUGGGCCGAGCUCAACACAGCGUGGCUAAGUGGCUGUGGCUAGACUGCCUCUCUGGAUUCCUCGUCACUCAGCAGGGCAUCUCUGAGAGAAAUGCC [A57C A77U] records self-cleavage of 1 or higher.
rule not met

// inclusive: self-cleavage at least 1? input: UACGUAGGUGGUCUUCCCCUGAUAGUGCUAAGGGGGCCUGGAAGUUUGGACUGGGCAGAGCUCAACACAGCGUGGCCAAGUGGCUGUGGCUAGACUGCCUCUCUGGAUUCCUCGUCACUCAGCAGGGCAUCUCUGAGAGAAAUGCC [U13C A77C]
rule met

Determine whether measured self-cleavage meets or exceeds 1 for UACGUAGGUGGUUUUCCCCUGAUAGUGCUAAGGGGGCCUGGAAGCUUGGACUGAGCAGAGCUCAACACAGCGUGGCAAAGUGGCUGUGGCUAGACUGCCUCUCUGGAUUCCUCGUCACUCAGCAGGGCAUCUCUGAGAGAAAUGCC [U45C G54A]
rule not met

Hi team, for UACGAAGGUGGUUUUCCCCUGAUAGUGCUAAGGGGGCCUGGAAGUCUGGACUGGGCAGAGCUCAACACAGCGUGGCAAAGUGGCUGUGGCUAGACUGCCUCUCUGGAUUCCUCGUCACUCAGCAGGGCAUCUCUGAGAGAAAUGCC [U5A U46C] , is the recorded self-cleavage at or above 1?
rule met
